Molecular target: WT BM3 heme domain (Priestia megaterium)
Construct: The BM3 heme domain proteins (WT and the DM A82F/F87V variant) used in this study were expressed as described in our previous studies; made in house; host or cells: E. coli BL21 (DE3)
Sequence (P14779 2-472): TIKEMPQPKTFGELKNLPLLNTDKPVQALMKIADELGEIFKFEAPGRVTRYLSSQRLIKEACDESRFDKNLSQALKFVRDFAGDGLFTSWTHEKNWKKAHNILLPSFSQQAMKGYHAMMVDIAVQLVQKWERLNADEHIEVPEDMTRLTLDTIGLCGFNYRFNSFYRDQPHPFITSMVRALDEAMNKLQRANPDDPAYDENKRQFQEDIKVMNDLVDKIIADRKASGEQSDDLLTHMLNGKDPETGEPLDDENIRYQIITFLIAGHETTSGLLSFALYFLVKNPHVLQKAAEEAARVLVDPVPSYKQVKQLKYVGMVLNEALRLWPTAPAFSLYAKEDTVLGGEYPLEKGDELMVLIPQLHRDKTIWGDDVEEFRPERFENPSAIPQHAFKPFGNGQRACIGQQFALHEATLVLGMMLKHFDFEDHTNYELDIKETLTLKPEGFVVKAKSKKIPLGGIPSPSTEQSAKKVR
Assay: biochemical
Format: binding, Bacillus megaterium
Conditions: Kd, WT BM3 heme domain; 25 mM KPi pH 7, 30 °C; NB = no binding seen in UV-visible spectroscopic titrations
result type: Kd (µM)
Give a bare numeral; the unit µM is implied.

Entry Clc1ccc(C(Cn2ccnc2)OCc2ccsc2Cl)c(Cl)c1 (stereo not shown) [Tioconazole] , Kd reported as 24.5

----------
Biological target: WT BM3 heme domain (Priestia megaterium)
Construct: The BM3 heme domain proteins (WT and the DM A82F/F87V variant) used in this study were expressed as described in our previous studies; made in house; host or cells: E. coli BL21 (DE3)
Experiment: biochemical
Type: binding, Bacillus megaterium
result type: pKd
Quick note: pKd means taking -log10 of the concentration in moles per liter.

Entry Clc1ccc(C(Cn2ccnc2)OCc2ccc(Sc3ccccc3)cc2)c(Cl)c1 (stereo not drawn) [Fenticonazole nitrate] , pKd reported as 5.72

Entry CC(C)(C)C(=O)C(Oc1ccc(Cl)cc1)n1ccnc1 (stereo not drawn) , pKd reported as 5.82

Entry Clc1ccc(C(Cn2ccnc2)OCc2csc3c(Cl)cccc23)c(Cl)c1 (stereo not drawn) [Sertaconazole nitrate] , pKd reported as 5.61

Entry c1ccc(-c2ccc(C(c3ccccc3)n3ccnc3)cc2)cc1 (stereo not drawn) , pKd reported as 5.45

Entry Clc1ccc(CCC(Cn2ccnc2)Sc2c(Cl)cccc2Cl)cc1 (stereo not drawn) [Butoconazole nitrate] , pKd reported as 5.42

Entry Clc1ccc(C(Cn2ccnc2)OCc2c(Cl)cccc2Cl)c(Cl)c1 (stereo not drawn) [Isoconazole nitrate] , pKd reported as 4.92
